The entries below are paired with their reported Kd.
# targetSystem: T1, RSV postfusion F (postF), subtype A (respiratory syncytial virus subtype A, UniProt P03420 26-513)
# T1 construct: also called Postfusion subtype A; F deltaFP
# experiment: BLI, IgG

binder	Kd
ADI-14361 (antibody, V domains shown, full-length IgG; also called Ab 29) VH: EVQLLESGGGFVQPGGSLRLSCAASGFTFSSYAVNWVRQAPGKGLEWVSLISGSGRTDYTDSVKGRFTISRDNAKNTLFLQMNSLRVEDTAVYYCAKSWGSSGYGYLDYWGQGTLVTVSS VL: QSGLTQPPSVSGAPGQRVTISCTGSSSNIGPGTDVHWYQHFPGTAPKLLIFGNSNRPSGVPDRFSGSKSGTSASLAITGLQAEDEAYYYCQSYDRTLSASVFGGGTKLTVL	0.437 nM
ADI-24803 (antibody, V domains shown, full-length IgG) VH: EVQLLESGGGLVLPGGSLRLSCAASGFTFSSYAMSWVRQAPGKGLEWVSAISGSGIYTYYADSVKGRFTISRDNSKNTLYLQMSSLRAEDTAVYYCAKGSLGMAYSAFDIWGLGTTVTVSS VL: DIQLTQSPGTLSLSSGERATLSCRASQSVSSNYLAWYQQKPGQPPRLLIYGASSRATGIPDRFSGSGSGTDFTLTISRLEPEDFAVYYCQQYGSSPLTFGGGTKVDIK	1.2 nM
ADI-14375 (antibody, V domains shown, full-length IgG; also called Ab 43) VH: EVQLVESGGGLVQPGGSLRLSCAVSGFTFSNYAVSWVRQAPGKGLEWVSGISGSGGTTYYVDSVKGRFTVSRDNSKNTLFLQLNSLKAEDTAVYYCAKDWGYSGGRPYFDYWGQGTLVTVSS VL: QSVLTQPPSVSGAPGQRVTISCTASSSNIGPIYDVHWYQQLPGTGPKLLIYGNNNRPSGVPDRFSGSKSGTSASLAITGLQAEDEADYYCQSYDTSLSVVFGGGTKLTVL	0.477 nM

Let us examine a further case.
[in] Dear colleague, please send me the reported Kd for ADI-14381 (antibody, V domains shown, full-length IgG; also called Ab 49) VH: EVQLVESGGGLVQPGGSLRLSCAASGFTFSSYSMNWVRQAPGKGLEWVSYIGSSSSSVYYGDSAKGRFTISRDNAKNSLYLQMNSLRDEDTALYYCARVGWLQYCRGGSCYASFGMDVWGQGTTVTVSS VL: DIQMTQSPSSLSASVGDRVTITCRASQGIRNDLGWYQQKPGIAPKLLIYAASSLQSGVPSRFSGSGSGTDFTLTISSLQPEDFATYYCLQDYDSPYTFGQGTKLEIK when you can.
[out] 0.754 nM

// data source = patent US20260258115A1
